Listed molecules paired with reported TGI
Test system: UACC-257 melanoma
Method: NCI tumour cell line growth inhibition, 48 h

>  <Molecule>
[C-]#[O+].[C-]#[O+].[Ir].[O-]c1cccc2cccnc12

>  <Tested On>
UACC-257 melanoma

>  <TGI>
> 100 µM

$$$$
>  <Molecule>
Cc1ccc2c(N)c(C(=O)N[C@H]3CCc4cc(N5CC6CCC(C5)N6)ccc4C3)sc2n1

>  <Tested On>
UACC-257 melanoma

>  <TGI>
2.84 µM

$$$$
>  <Molecule>
O=C1c2ccccc2-c2c1c1ccccc1c(=O)n2CCCN1CCOCC1

>  <Tested On>
UACC-257 melanoma

>  <TGI>
> 100 µM

$$$$
>  <Molecule>
[N-]=[N+]=NC1C(Br)C(=O)NC(=O)N1[C@H]1C[C@H](O)[C@@H](CO)O1 (stereo partly specified)

>  <Tested On>
UACC-257 melanoma

>  <TGI>
> 100 µM

$$$$
>  <Molecule>
CN(C)CCO/N=C1/C=C2CC[C@H]3[C@@H]4CC[C@H](O)[C@@]4(C)CC[C@@H]3[C@@]2(C)CC1

>  <Tested On>
UACC-257 melanoma

>  <TGI>
30.2 µM

$$$$
>  <Molecule>
Nc1nc(SCc2ccccc2)c2ncn(Cc3ccccc3)c2n1

>  <Tested On>
UACC-257 melanoma

>  <TGI>
> 100 µM

$$$$
>  <Molecule>
O=C1N=C(c2ccccc2)O/C1=C\c1ccccc1

>  <Tested On>
UACC-257 melanoma

>  <TGI>
> 100 µM

$$$$
>  <Molecule>
Cc1c2c(n(CCc3ccccc3)c1C)NN=C(C#N)S2(=O)=O

>  <Tested On>
UACC-257 melanoma

>  <TGI>
> 100 µM

$$$$
>  <Molecule>
CC(C)CCC[C@@H](C)C1CCC2[C@@H]3CCC4CC(CCC=C(c5cc(Cl)c(OC(=O)c6ccccc6)c(C(=O)O)c5)c5cc(Cl)c(OC(=O)c6ccccc6)c(C(=O)O)c5)CC[C@]4(C)C3CC[C@@]21C (stereo partly specified)

>  <Tested On>
UACC-257 melanoma

>  <TGI>
> 100 µM

$$$$
>  <Molecule>
COC(=O)C(Nc1ccc(OC)cc1)c1ccccc1 (stereo unspecified)

>  <Tested On>
UACC-257 melanoma

>  <TGI>
> 100 µM

$$$$
>  <Molecule>
CN(c1ccccc1)C(c1ccccc1)C(O)c1ccccc1 (stereo unspecified)

>  <Tested On>
UACC-257 melanoma

>  <TGI>
35.6 µM

$$$$
>  <Molecule>
COc1ccc2c3ccc4c(c3n(C)c2c1)C(=O)c1ccccc1C4=O

>  <Tested On>
UACC-257 melanoma

>  <TGI>
> 100 µM

$$$$
>  <Molecule>
CCC(=O)COc1ccc(NC(NC(=O)C(C(F)(F)F)C(F)(F)F)(C(F)(F)F)C(F)(F)F)cc1

>  <Tested On>
UACC-257 melanoma

>  <TGI>
> 100 µM

$$$$
>  <Molecule>
O=C1CCC2SC1CCC2=O

>  <Tested On>
UACC-257 melanoma

>  <TGI>
> 100 µM

$$$$
>  <Molecule>
S=C(N/N=C/c1ccccn1)Nc1ccccn1

>  <Tested On>
UACC-257 melanoma

>  <TGI>
5.85 µM

$$$$
>  <Molecule>
COc1ccc(-c2cn[nH]c2-c2cc(OC)c(OC)c(OC)c2)cc1N

>  <Tested On>
UACC-257 melanoma

>  <TGI>
> 100 µM

$$$$
>  <Molecule>
CCOC(=O)c1nc2ccc(C(F)(F)F)cc2nc1Oc1ccc(F)cc1

>  <Tested On>
UACC-257 melanoma

>  <TGI>
> 100 µM

$$$$
>  <Molecule>
O=C1OC2(c3ccccc3Oc3ccccc32)c2ccccc21

>  <Tested On>
UACC-257 melanoma

>  <TGI>
> 100 µM

$$$$
>  <Molecule>
Cc1nc2cccc(NCc3ccc(C(=O)NO)cc3)c2c(=O)n1-c1ccccc1

>  <Tested On>
UACC-257 melanoma

>  <TGI>
4.98 µM

$$$$
>  <Molecule>
NC1=NC(OCC2(CO)CCC2)C=C(NCC2(CO)CCC2)N1 (stereo unspecified)

>  <Tested On>
UACC-257 melanoma

>  <TGI>
> 100 µM

$$$$
>  <Molecule>
COC(=O)CC1C(=O)OCc2c1cc1n(c2=O)Cc2c-1nc1ccccc1c2OC (stereo unspecified)

>  <Tested On>
UACC-257 melanoma

>  <TGI>
> 100 µM

$$$$
